- ASSAY METHOD TEXT: Volume of distribution in iv dosed rat
- Format: ADME, organism-based
- EXPERIMENTAL SETUP: in vivo, read-out: Vdss
I would appreciate it if you labelled entries rule met when Vd is 7 L/kg or higher, otherwise rule not met.

MOLECULE	ANSWER LABEL
COc1ccc(N2Cc3c(F)ccc(C(F)(F)F)c3C2=O)cc1OCCN1CCC(C)CC1	rule not met
COc1ccc(N2Cc3cc(Cl)cc(Cl)c3C2=O)cc1OCCN1CCC(C)CC1	rule not met
COc1ccc(N2Cc3cc(Cl)c(C)c(Cl)c3C2=O)cc1OCCN1CCC(C)CC1	rule met
COc1ccc(N2Cc3cc(C)cc(C)c3C2=O)cc1OCCN1CCC(C)CC1	rule met
COc1ccc(N2Cc3cc(Cl)c(Cl)cc3C2=O)cc1OCCN1CCC(C)CC1	rule met
COc1ccc(N2C(=O)c3c(Cl)cccc3C2C)cc1OCCN1CCC(C)CC1 (configuration not stated)	rule met

###

- ASSAY METHOD TEXT: Blood clearance in iv dosed rat
- Assay type: ADME, organism-based
- EXPERIMENTAL SETUP: whole blood
Decide using clearance alone. Strictly below 3 L/h/kg: Y. Equal to or above 3 L/h/kg: N.

MOLECULE	ANSWER LABEL
COc1ccc(N2Cc3c(F)ccc(C(F)(F)F)c3C2=O)cc1OCCN1CCC(C)CC1	Y
COc1ccc(N2C(=O)c3c(Cl)cccc3C2C)cc1OCCN1CCC(C)CC1 (configuration not stated)	N
COc1ccc(N2Cc3cc(Cl)c(Cl)c(C)c3C2=O)cc1OCCN1CCC(C)CC1	Y
COc1ccc(N2Cc3cc(Cl)c(Cl)cc3C2=O)cc1OCCN1CCC(C)CC1	Y
COc1ccc(N2Cc3cc(Cl)c(C)c(Cl)c3C2=O)cc1OCCN1CCC(C)CC1	Y
COc1ccc(N2Cc3cc(C)cc(C)c3C2=O)cc1OCCN1CCC(C)CC1	N

###

Consider compounds characterized by their Ki with 5-hydroxytryptamine receptor 2B (Homo sapiens, UniProt P41595).
Sequence (P41595 whole entry): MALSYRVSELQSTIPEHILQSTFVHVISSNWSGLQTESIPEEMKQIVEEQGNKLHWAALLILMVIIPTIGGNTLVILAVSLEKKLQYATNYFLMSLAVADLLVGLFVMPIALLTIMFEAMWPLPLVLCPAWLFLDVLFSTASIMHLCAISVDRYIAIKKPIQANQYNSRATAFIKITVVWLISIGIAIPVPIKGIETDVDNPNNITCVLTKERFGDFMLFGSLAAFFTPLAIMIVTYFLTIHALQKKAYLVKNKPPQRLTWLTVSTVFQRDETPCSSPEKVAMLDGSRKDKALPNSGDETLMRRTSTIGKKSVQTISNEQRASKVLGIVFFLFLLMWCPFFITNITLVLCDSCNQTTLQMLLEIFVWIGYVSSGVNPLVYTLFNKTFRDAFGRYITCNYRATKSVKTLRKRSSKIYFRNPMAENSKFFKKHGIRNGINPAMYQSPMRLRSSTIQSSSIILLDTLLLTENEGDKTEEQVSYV
READOUT LABEL: Ki (nM)

COMPOUND	COMPARATIVE SIGN	NUMERIC RESULT
COc1ccc(N2Cc3cc(Cl)ccc3C2=O)cc1OCCN1CCCCC1	>	10000
COc1ccc(N2Cc3ccc(Cl)cc3C2=O)cc1OCCN1CCC(C)CC1	>	1000
COc1ccc(N2Cc3cccc(C(F)(F)F)c3C2=O)cc1OCCN1CCC(C)CC1	=	501
COc1ccc(N2Cc3cccc(F)c3C2=O)cc1OCCN1CCCCC1	>	3160
COc1ccc(N2Cc3ccc(Cl)cc3C2=O)cc1OCCN1CCCCC1	>	1580
COc1ccc(N2Cc3cc(F)cc(C(F)(F)F)c3C2=O)cc1OCCN1CCC(C)CC1	=	251
COc1ccc(N2Cc3cccc(Br)c3C2=O)cc1OCCN1CCC(C)CC1	=	158
COc1ccc(N2C(=O)c3c(Cl)cccc3C2C)cc1OCCN1CCC(C)CC1 (configuration not stated)	=	200
COc1ccc(N2Cc3cccc(C#N)c3C2=O)cc1OCCN1CCC(C)CC1	>	794
COc1ccc(N2Cc3cc(Cl)cc(Cl)c3C2=O)cc1OCCN1CCC(C)CC1	=	200
COc1ccc(N2Cc3cccc(C)c3C2=O)cc1OCCN1CCC(C)CC1	=	200
COc1ccc(N2Cc3c(F)c(F)cc(Cl)c3C2=O)cc1OCCN1CCC(C)CC1	=	126
COc1ccc(N2Cc3cc(Cl)cc(Cl)c3C2=O)cc1OCCN1CCCCCC1	=	200
COc1ccc(N2Cc3cccc(Cl)c3C2=O)cc1OCCN1CCC(C)CC1	=	126
COc1ccc(N2Cc3cc(Cl)cc(Cl)c3C2=O)cc1OCCN1[C@H](C)CCC[C@@H]1C	=	126
COc1ccc(N2Cc3cc(Cl)cc(Cl)c3C2=O)cc1OCCN1CCC(C)(C)CC1	=	251
COc1ccc(N2Cc3c(F)ccc(C(F)(F)F)c3C2=O)cc1OCCN1CCC(C)CC1	>	1000

###

- SYSTEM TESTED: 5-hydroxytryptamine receptor 2C (Homo sapiens)
- Sequence (P28335 whole entry): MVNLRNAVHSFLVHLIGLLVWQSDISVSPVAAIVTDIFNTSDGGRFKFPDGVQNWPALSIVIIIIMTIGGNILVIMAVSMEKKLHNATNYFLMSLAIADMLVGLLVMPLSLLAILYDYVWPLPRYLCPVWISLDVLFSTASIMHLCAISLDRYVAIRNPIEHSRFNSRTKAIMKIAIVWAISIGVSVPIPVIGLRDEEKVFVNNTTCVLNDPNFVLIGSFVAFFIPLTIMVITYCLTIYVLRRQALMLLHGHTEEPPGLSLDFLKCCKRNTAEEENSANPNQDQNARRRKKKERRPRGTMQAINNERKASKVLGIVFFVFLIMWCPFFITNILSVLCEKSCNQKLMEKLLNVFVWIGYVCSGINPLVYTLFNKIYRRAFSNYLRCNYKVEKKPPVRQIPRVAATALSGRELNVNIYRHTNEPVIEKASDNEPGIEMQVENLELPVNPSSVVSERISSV
pKi: −log10 of the molar value.

TEST SMILES	pKi
COc1ccc(N2Cc3cc(Cl)c(Cl)c(C)c3C2=O)cc1OCCN1CCC(C)CC1	8.60
COc1ccc(N2Cc3ccc(Cl)cc3C2=O)cc1OCCN1CCCCC1	7.80
COc1ccc(N2Cc3cc(Cl)ccc3C2=O)cc1OCCN1CCC(C)CC1	7.60
COc1ccc(N2Cc3cccc(C(F)(F)F)c3C2=O)cc1OCCN1CCC(C)CC1	8.80
COc1ccc(N2Cc3cc(Cl)cc(Cl)c3C2=O)cc1OCCN1CCC(C)(C)CC1	8.70
COc1ccc(N2Cc3cccc(Cl)c3C2=O)cc1OCCN1CCC(C)CC1	8.80
COc1ccc(N2Cc3cccc(C#N)c3C2=O)cc1OCCN1CCC(C)CC1	8.00
COc1ccc(N2Cc3cccc(OC)c3C2=O)cc1OCCN1CCCCC1	6.70
COc1ccc(N2Cc3cccc(Br)c3C2=O)cc1OCCN1CCC(C)CC1	9.10
COc1ccc(N2Cc3ccccc3C2=O)cc1OCCN1CCCCC1	7.30
COc1ccc(N2Cc3cc(Cl)cc(Cl)c3C2=O)cc1OCCN1[C@H](C)CCC[C@@H]1C	8.20

###

- SYSTEM TESTED: 5-hydroxytryptamine receptor 2C (Homo sapiens) (UniProt P28335)
- Sequence (P28335 whole entry): as above
- ASSAY METHOD TEXT: Antagonist activity at 5HT2C receptor expressed in HEK293 cells assessed as blockade of 5-hydroxytryptamine-induced intracellular calcium mobilisation
- Assay type: functional, cell-based
In this section, each of the compounds is paired with its reported pKb.

TEST SMILES	pKb
COc1ccc(N2Cc3cccc(Cl)c3C2=O)cc1OCCN1CCC(C)CC1	8.7
COc1ccc(N2Cc3cc(Cl)cc(Cl)c3C2=O)cc1OCCN1CCC(C)CC1	8.8
COc1ccc(N2Cc3cc(Cl)ccc3C2=O)cc1OCCN1CCCCC1	6.9
COc1ccc(N2Cc3c(Cl)cccc3C2=O)cc1OCCN1CCCCC1	6
COc1ccc(N2Cc3ccc(Cl)cc3C2=O)cc1OCCN1CCCCC1	7.2
COc1ccc(N2Cc3cccc(Br)c3C2=O)cc1OCCN1CCC(C)CC1	9.3

###

Each record here notes measured bioavailability.
- ASSAY METHOD TEXT: Oral bioavailability in po dosed rat
- Assay type: ADME, organism-based
- EXPERIMENTAL SETUP: in vivo
READOUT LABEL: bioavailability

TEST SMILES	RESULT
COc1ccc(N2Cc3cc(C)cc(C)c3C2=O)cc1OCCN1CCC(C)CC1	10%
COc1ccc(N2Cc3cc(Cl)c(Cl)c(C)c3C2=O)cc1OCCN1CCC(C)CC1	43%
COc1ccc(N2Cc3cc(Cl)c(Cl)cc3C2=O)cc1OCCN1CCC(C)CC1	22%
COc1ccc(N2Cc3cc(Cl)c(C)c(Cl)c3C2=O)cc1OCCN1CCC(C)CC1	24%
COc1ccc(N2Cc3c(F)ccc(C(F)(F)F)c3C2=O)cc1OCCN1CCC(C)CC1	4%

###

- SYSTEM TESTED: UniProt:P28223
- Sequence (P28223 whole entry): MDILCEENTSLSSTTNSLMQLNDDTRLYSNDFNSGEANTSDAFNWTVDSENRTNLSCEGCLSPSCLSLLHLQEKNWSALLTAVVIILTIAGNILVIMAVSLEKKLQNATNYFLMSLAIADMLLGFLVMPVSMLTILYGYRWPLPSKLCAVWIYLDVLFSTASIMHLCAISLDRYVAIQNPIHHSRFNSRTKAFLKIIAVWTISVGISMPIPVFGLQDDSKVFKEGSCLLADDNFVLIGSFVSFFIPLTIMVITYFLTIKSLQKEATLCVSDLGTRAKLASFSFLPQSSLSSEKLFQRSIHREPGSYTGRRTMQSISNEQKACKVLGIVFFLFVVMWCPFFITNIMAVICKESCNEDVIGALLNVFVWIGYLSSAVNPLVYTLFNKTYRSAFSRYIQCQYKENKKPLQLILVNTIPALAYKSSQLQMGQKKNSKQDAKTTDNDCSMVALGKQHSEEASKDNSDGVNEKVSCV
- ASSAY METHOD TEXT: Displacement of [3H]ketanserin from 5HT2A receptor expressed in HEK293 cells
- Assay type: cell-based
Checkbox rule: Ki lower than 600 nM = Criterion met; Ki not lower than 600 nM = Criterion not met.

COMPOUND	ANSWER LABEL
COc1ccc(N2Cc3ccc(Cl)cc3C2=O)cc1OCCN1CCCCC1	Criterion not met
COc1ccc(N2Cc3cccc(Cl)c3C2=O)cc1OCCN1CCC(C)CC1	Criterion not met
COc1ccc(N2Cc3cccc(C)c3C2=O)cc1OCCN1CCC(C)CC1	Criterion not met
COc1ccc(N2Cc3cc(Cl)cc(Cl)c3C2=O)cc1OCCN1[C@H](C)CCC[C@@H]1C	Criterion met
COc1ccc(N2Cc3ccc(Cl)cc3C2=O)cc1OCCN1CCC(C)CC1	Criterion not met
COc1ccc(N2Cc3cc(Cl)cc(Cl)c3C2=O)cc1OCCN1CCOCC1	Criterion not met
COc1ccc(N2Cc3c(Cl)cccc3C2=O)cc1OCCN1CCCCC1	Criterion not met
COc1ccc(N2Cc3ccc(Cl)c(Cl)c3C2=O)cc1OCCN1CCC(C)CC1	Criterion met
COc1ccc(N2Cc3cccc(Br)c3C2=O)cc1OCCN1CCC(C)CC1	Criterion not met
COc1ccc(N2C(=O)c3c(Cl)cccc3C2C)cc1OCCN1CCC(C)CC1 (configuration not stated)	Criterion not met
COc1ccc(N2Cc3cc(Cl)cc(Cl)c3C2=O)cc1OCCN1CCCC(C)C1 (configuration not stated)	Criterion not met
COc1ccc(N2Cc3cccc(C(F)(F)F)c3C2=O)cc1OCCN1CCC(C)CC1	Criterion not met
COc1ccc(N2Cc3cccc(F)c3C2=O)cc1OCCN1CCCCC1	Criterion not met
COc1ccc(N2Cc3cc(F)cc(C(F)(F)F)c3C2=O)cc1OCCN1CCC(C)CC1	Criterion met
COc1ccc(N2Cc3cccc(C#N)c3C2=O)cc1OCCN1CCC(C)CC1	Criterion not met
COc1ccc(N2Cc3cc(Cl)cc(Cl)c3C2=O)cc1OCCN1CCCCCC1	Criterion not met
COc1ccc(N2Cc3cc(C)cc(C)c3C2=O)cc1OCCN1CCC(C)CC1	Criterion not met
